Reference source for all entries: patent US20220402916A1

We begin with a simple list: items and their reported log10(IC50).
Molecular target: Biotinylated KRAS G12C protein (Homo sapiens, UniProt P01116, C118S/C51S/C80L/G12C)
Construct: 183 amino acids; biotin on K10
Sequence (P01116 with tags, fused parts or gaps isoform P01116-2 G12C/C51S/C80L/C118S): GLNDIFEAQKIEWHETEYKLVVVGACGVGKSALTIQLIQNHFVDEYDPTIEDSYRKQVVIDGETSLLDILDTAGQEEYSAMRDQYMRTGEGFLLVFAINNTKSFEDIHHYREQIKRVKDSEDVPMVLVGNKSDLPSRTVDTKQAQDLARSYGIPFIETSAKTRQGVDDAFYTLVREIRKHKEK
Experiment: SOS-catalyzed nucleotide exchange assay
Format: biochemical
Conditions: apparent potency; preincubation time of 60 minutes prior to addition of SOS
Experimental: Compounds are added to this complex, and then after 60 minute incubation time the mixture is treated with recombinant SOS protein and unlabeled GTP. […] The time-resolved fluorescence resonance energy transfer signal for the assay plate is measured on an Envision (PerkinElmer) plate reader: Excitation filter=340 nm; emission1=495 nm; emission2=520 nm; dichroic mirror=D400/D505; delay time=100 μs. The signal of each well is determined as the ratio of the emission at 520 nm to that at 495 nm. […]
Response schema: value (number) is log10 of IC50 in units of nM.

Before answering, review these 4 worked examples.
| compound | test result |
| --- | --- |
| C=CC(=O)N1CCN(c2cc(C(=O)NCC3(N)CCCCCC3)nc3c2CCN(c2cccc4cccc(C)c24)C3)C[C@@H]1CC#N [Compound 91] | 1.08 |
| C=C(F)C(=O)N1CCN(c2cc(C(=O)N[C@H](C)CN(C)C)nc3c2CCN(c2cccc4cccc(C)c24)C3)C[C@@H]1CC#N [Compound 78] | 0.92 |
| C=CC(=O)N1CCN(c2cc(C(=O)NC3CCCCN(C)C3)nc3c2CCN(c2cccc4cccc(C)c24)C3)CC1 (racemic) [Compound 53] | 3.73 |
| C=CC(=O)N1CCN(c2cc(C(=O)N[C@H](C)CN(C)C)nc3c2CCN(c2cccc4cccc(C)c24)C3)C[C@@H]1CC#N [Compound 65] | 0.32 |

Recall the recorded log10(IC50) for C=CC(=O)N1CCN(c2cc(C(=O)N[C@@H]3CCN(C)C3)nc3c2CCN(c2cccc4cccc(C)c24)C3)CC1 [Compound 50] with Biotinylated KRAS G12C protein (Homo sapiens, UniProt P01116, C118S/C51S/C80L/G12C) and state it.
3.55

Recall the recorded log10(IC50) for C=CC(=O)N1CCN(c2cc(C(=O)N[C@H](C)CN)nc3c2CCN(c2cccc4cccc(C)c24)C3)C[C@@H]1CC#N [Compound 67] with Biotinylated KRAS G12C protein (Homo sapiens, UniProt P01116, C118S/C51S/C80L/G12C) and state it.
0.77

Recall the recorded log10(IC50) for C=CC(=O)N1CCN(c2cc(C(=O)NCCC3CCCN3C)nc3c2CCN(c2cccc4cccc(C)c24)C3)CC1 (racemic) [Compound 57] with Biotinylated KRAS G12C protein (Homo sapiens, UniProt P01116, C118S/C51S/C80L/G12C) and state it.
3.53

Recall the recorded log10(IC50) for C=CC(=O)N1CCN(c2cc(C(=O)N[C@H]3CC[C@@H](NC)CC3)nc3c2CCN(c2cccc4cccc(C)c24)C3)C[C@@H]1CC#N [Compound 96] with Biotinylated KRAS G12C protein (Homo sapiens, UniProt P01116, C118S/C51S/C80L/G12C) and state it.
1.75

Recall the recorded log10(IC50) for C=CC(=O)N1CCN(c2cc(C(=O)N[C@H]3COC[C@H]3N)nc3c2CCN(c2cccc4cccc(C)c24)C3)CC1 (racemic) [Compound 28] with Biotinylated KRAS G12C protein (Homo sapiens, UniProt P01116, C118S/C51S/C80L/G12C) and state it.
3.86
